- TARGET: choline kinase of Streptococcus pneumoniae (sChoK) (Streptococcus pneumoniae)
- Construct: gene pck
- Sequence (Q8DPI4 entry or part of it): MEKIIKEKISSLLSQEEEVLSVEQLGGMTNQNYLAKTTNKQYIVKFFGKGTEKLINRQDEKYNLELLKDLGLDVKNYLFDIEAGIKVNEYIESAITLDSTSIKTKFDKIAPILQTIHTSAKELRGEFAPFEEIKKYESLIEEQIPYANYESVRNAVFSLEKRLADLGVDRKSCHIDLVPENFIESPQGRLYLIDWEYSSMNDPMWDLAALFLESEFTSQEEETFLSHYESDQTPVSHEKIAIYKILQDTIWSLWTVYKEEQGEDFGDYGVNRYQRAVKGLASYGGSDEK
- ASSAY_SUMMARY: colorimetric choline kinase assay (IC50); PK/LDH kinetics on purified recombinant sChoK (Ki […] +/- […], unit inferred)
- Assay type: biochemical
ASSAY_METRIC: pIC50
Reminder that pIC50 means the negative base-10 logarithm of the concentration expressed in mol/L.

Note pIC50 for the compound shown: O=c1c(O)c(-c2ccc(O)c(O)c2)oc2cc(O)cc(O)c12
5.21

The reported measurements were obtained from paper PMC9495829.
